Molecular target: TLR7 (Homo sapiens)
Construct: Human peripheral blood mononuclear cells (PBMCs) consist of lymphocytes, monocytes and dendritic cells that express TLR7, TLR8 and TLR9; endogenous in cells
Sequence (Q9NYK1 27-1049): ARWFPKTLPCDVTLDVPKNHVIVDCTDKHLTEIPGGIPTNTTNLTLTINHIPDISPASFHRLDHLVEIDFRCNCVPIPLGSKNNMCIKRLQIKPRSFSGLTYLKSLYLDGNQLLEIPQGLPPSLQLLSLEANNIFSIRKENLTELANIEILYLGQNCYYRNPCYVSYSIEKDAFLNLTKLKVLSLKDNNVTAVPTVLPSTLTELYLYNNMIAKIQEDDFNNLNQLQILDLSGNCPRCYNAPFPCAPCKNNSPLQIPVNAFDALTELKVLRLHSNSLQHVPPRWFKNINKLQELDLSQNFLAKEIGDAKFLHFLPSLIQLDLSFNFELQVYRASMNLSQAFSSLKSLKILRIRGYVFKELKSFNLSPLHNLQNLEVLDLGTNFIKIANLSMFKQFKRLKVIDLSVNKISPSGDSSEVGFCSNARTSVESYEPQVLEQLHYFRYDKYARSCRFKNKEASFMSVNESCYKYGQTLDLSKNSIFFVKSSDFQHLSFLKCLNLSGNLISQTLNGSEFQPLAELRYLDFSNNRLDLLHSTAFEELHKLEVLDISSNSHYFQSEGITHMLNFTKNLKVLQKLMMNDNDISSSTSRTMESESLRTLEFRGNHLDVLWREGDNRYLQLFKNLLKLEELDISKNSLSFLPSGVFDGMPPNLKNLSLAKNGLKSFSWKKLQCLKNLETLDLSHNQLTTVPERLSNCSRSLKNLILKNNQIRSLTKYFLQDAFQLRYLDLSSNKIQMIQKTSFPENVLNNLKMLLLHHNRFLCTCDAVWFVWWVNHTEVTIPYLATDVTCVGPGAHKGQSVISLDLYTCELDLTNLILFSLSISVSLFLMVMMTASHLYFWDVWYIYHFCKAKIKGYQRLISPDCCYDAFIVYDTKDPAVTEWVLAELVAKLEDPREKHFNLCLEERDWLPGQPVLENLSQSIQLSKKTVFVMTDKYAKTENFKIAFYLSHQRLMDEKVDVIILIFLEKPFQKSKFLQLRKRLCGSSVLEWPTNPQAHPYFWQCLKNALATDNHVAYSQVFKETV
Assay: TLR7 human PBMC cell-based assay (antagonist, GS-986 stimulated cytokine release)
Conditions: human PBMCs; TLR7 agonist GS-986 400 nM, 6 hours; cytokines (IL-6 and IFNα) in supernatant; read-out: TLR-7 EC50
Text: Human peripheral blood mononuclear cells (PBMCs) consist of lymphocytes, monocytes and dendritic cells that express TLR7, TLR8 and TLR9. These cells respond to TLR7, TLR8 and TLR9 ligand stimulation and produce cytokines and chemokines in vitro and in vivo. Human PBMCs are therefore suitable to be used in a cell-based assay to assess the in vitro potency of a TLR 7, 8, and/or 9 antagonist. […]
# key: entry, value: EC50
metric.name: EC50 (nM)

> print(dat)
                                   compound  unit.annotation  reading.qualifier  result
1  Cc1cc(-c2[nH]c3cc(C(=O)N(C)[C@@H]4CCNC[C@@H]4F)sc3c2C(C)C)cn2ncnc12 [Example 79]               nM                  =     0.3
2  Cc1cc(-c2[nH]c3cc(C(=O)N4C[C@@H](N)C[C@@H](C(F)(F)F)C4)sc3c2C(C)C)cn2ncnc12 [Example 77]               nM                  =       9
3  Cc1cc(-c2[nH]c3cc(C4CCN(CC(N)=O)CC4(C)C)sc3c2C(C)C)cn2ncnc12 (stereo not drawn) [Example 298]               nM                  =    4.02
4  Cc1cc(-c2[nH]c3cc(-c4ccc5c(c4)CN(CCO)CC5)sc3c2C(C)C)cn2ncnc12 [Example 188]               nM                  =     1.3
5  Cc1c(-c2[nH]c3cc(C(=O)N(C)[C@@H]4CNC[C@H](C(F)(F)F)C4)sc3c2C(C)C)cn2ncnc2c1C [Example 273]               nM                  =     9.8
6  Cc1cc(-c2[nH]c3cc(C(=O)N[C@@H]4CCNC4)sc3c2C(C)C)cc(C)n1 [Example 5]               nM                  >    1000

Hey, just so you know, these numbers are from patent US20240217990A1.
